# method.description: soluble on expression in E. coli; label from the status in PepcDB or PDB records
measured.attribute: soluble on expression in E. coli

# sequence.chain, measured.result
records = [
    ("MIDLRKLTEVQRRLSRKIVEKPIDIAKVKRVGAVDVSYKNNFAKAAFVCVEFPSGEIIKTKTIVTTVEFPYIPTFFFLRETKPILLAVKDENFDVLLVEGHGKAHPRRYGLASHIGVILSKPTIGVAKRLLRGVSKDTYVKVGKAFVSVGNLITLNDAVRIVEKLLDENGYPKPLNIADKLSKRGESREKELEHHHHHH", "not soluble"),
    ("TKNWSWTASANAAWQKVRIKNLTLTPGAPSPDTEVGPWIDAYQMQVFSTDYAPYSFYLYKQLYDAETGQPIEGLYADLDGDGEITNKDRYHHHSPAPDWILGFSTSLRYKKWTLSTSLRANIGGYIFNGMAMNTGAWETMSYNDYQLNNLNRSFLDTRFTKRQFLSDHYLENASFLKMDNLQLSYDFGRIYKTIGLHASAMVQNVFTVTKYKGVDPETANGVDTSVYPRPRTYSITIGLNF", "not soluble"),
    ("MRYEEPVFRPPSEAFSLIVQATIGCSWNRCTFCGMYKMKKFRVRDIEEVKEDFRLAKEIYGDVRRVFLADGNALAADTDYLLEIADYANKLFNLERISCYATPQDILEKSKEELKEIRNAGIKLLYVGIESGDDEILERIRKGVSSNEIAEACMKAHECGFELSVTVLTGIGGKERSYKNARNTARLLNRISPKYTGVLTYIPVPNTPLYVKIKRGEFLLPNPLENLLELRWMVERIEARTIFRCNHASNYLPLKGTLPEDREKLLKAIDYAIAHPEVLKPEWLRGL", "not soluble"),
]

====

# method.description: soluble on expression in E. coli; label from the status in PepcDB or PDB records
measured.attribute: soluble on expression in E. coli

Some entries whose results are on file:
# sequence.chain, measured.result
measured = [
    ("MSLRSPLEPGAPDALLTVIVIVEHLDHKEEVIVQGREIVPSMDGHFDTIQELNSRFTESAPREKIEIGNRERPFKLHVVNVGDSRAMLVTGESYAALTRDHVPDDPGEWRRIEETGDQVVYSDGCARIRGLAMSRSFGDFVAKEVRTPSPITAKPDIRRFYATWNDVLLLYSDGLHVDGEDWRTNFGMAKQCISSVPKISDVAVCLLQQAYGGGSSDNITVLATKFRKFRRQTSAKLRIFGGLAKSFSEEGHHHHHH", "not soluble"),
    ("MGSDKIHHHHHHMSFKKVDLSRYQFDGAQASSIGDLTQLDAADKQRLLYAGIDVNQQNLAGSFMHMNHSGVHCTSRQEGLEILDIKQALDTYHGLPDYFWKLVDRNKDEYTRAADEHLHGGYFIRARAGAKIEAPVQSCLFIKGNGVGQNVHNVVVVEEGAEMHIITGCATAHDTRSVAHLGISEFYVHKGGKLTFTMIHNWGEEAAVRPRSAGYLEEDAVFLSNYVLLKPVTDLQMYPTITLGGRGSVARFNSVIVAPTGSYVDTGNRILLEAPDTRGEIIARTMTTGGTIINRGHIAGHAVPARGHLECKGLILGGGVIHAIPELEGTQDGVELSHEAAVGKIAQEEIEYLMARGLDEDEATSTIVRGFLNVDIMGLPEELEKAVEEQINQLDAGDAM", "not soluble"),
    ("MKITVIGAGNVGATTAFRLAEKQLARELVLLDVVEGIPQGKALDMYESGPVGLFDTKVTGSNDYADTANSDIVIITAGLPRKPGMTREDLLMKNAGIVKEVTDNIMKHSKNPIIIVVSNPLDIMTHVAWVRSGLPKERVIGMAGVLDAARFRSFIAMELGVSMQDINACVLGGHGDAMVPVVKYTTVAGIPISDLLPAETIDKLVERTRNGGAEIVEHLKQGSAFYAPASSVVEMVESIVLDRKRVLPCAVGLEGQYGIDKTFVGVPVKLGRNGVEQIYEINLDQADLDLLQKSAKIVDENCKMLESTIG", "soluble"),
    ("AGVNDDMPLKECYRTMWLNIWNLAGSNLNAISNRVQYDSLPCTTRNKTWELERKMFAQVDRLFNQGKEEGVFKPLDNEVLSGLSFEASVALARKHALGFYQLDDDALEAAIEASWDAIIKH", "not soluble"),
]

Record `MRVLVTGGSGYIGSHTCVQLLQNGHDVIILDNLCNSKRSVLPVIERLGGKHPTFVEGDIRNEALMTEILHDHAIDTVIHFAGLKAVGESVQKPLEYYDNNVNGTLRLISAMRAANVKNFIFSSAATVYGDNPKIPYVESFPTGTPQSPYGKSKLMVEQILTDLQKAQPDWSIALLRYFNPVGAHPSGDMGEDPQGIPNNLMPYIAQVAVGRRDSLAIFGNDYPTEDGTGVRDYIHVMDLADGHVVAMEKLANKPGVHIYNLGAGVGNSVLDVVNAFSKACGKPVNYHFAPRREGDLPAYWADASKADRELNWRVTRTLDEMAQDTWHWQSRHPQGYPD` . Reported soluble on expression in E. coli: soluble

====

# method.description: soluble on expression in E. coli; label from the status in PepcDB or PDB records
measured.attribute: soluble on expression in E. coli

Some entries whose results are on file:
# sequence.chain, soluble on expression in E. coli
measured = [
    ("MASSGYLYSLVAEDGVWQAFVSKAKLSRERAVALHKALRELTALLAIADRGRLQKGLKGREKFLKVFPRLKAELVEHISQLHALADHAEKLHRGCTISNVVADSFSAASDILSLLGLFLAPVTAEGSLVLSATGLGLGVAATVTDVATSIVEETSRVLDEVEAAPTGTHVLGEAGTSVDRIASKVPQATRDITRDLEALEQHMNALRLVRANPRLEEDARILATTGSISAQRAMQVRASLKGTPLAMSNEARIQRATAAGAALWSDVDSLVKESKHLYEGSASESAEALRKLARELEEKLEGLMEFYKTI", "soluble"),
    ("MVHYKLSYFPIRGAGEVIRQIFVYAGQSFEDHRISIEEWAAVKPTTPFGQLPLLEVDGKVLPQSHSIARFLARQFGINGKCAWEEAQVNSIADQFKDYRNEVRPYVMVKMGFAEGDLDALSKDVFLPGFKKHYGFIYNFLKTAGSGYLVGDSLTFVDLLIAQHTADILSTDPALLEEFPQFKAHQEKVHSNANIKKWLETRPETQF", "not soluble"),
    ("MKFFIAFACLLAVALANEDANVLRAEQQVNVDGFAYAVELDNSVNVQQKGDLNGEEWVVKGSQSWTSPENVPVSIQYIADANGYQVVSANPPLPTPPPIPEAIQRSLEYIAAHPPSQLEHHHHHH", "not soluble"),
    ("MGSDKIHHHHHHMVQVDNTFYDGSAYDPETVRFFDVAQEGAQVRQIGGLVAQGALSAFEGLRPRSVVVMLDGQIHRSCVRLVETLHSPMRQPLVITSTLPHYIGALDVLIVITDNGADEKALKALITASQRGVATLLIGPSSGPLIDESPQDTFVLPTLPTAAGLSPARIVASISTLLDLLEADPSIISDRLEHLADCIDEEVESLSPERDELVNPGRKLRAYVDHARIVHTGRTDVGLAIANVIAPIWTRRGLVSAVLDFPELMESLPELRGPEPITDDIFHDPFIDDEPGVVPFRAVVWAEEEPGIPDAMAQSCDGPSKGALTQALRLLVRGQSATTYSIEEKDL", "not soluble"),
    ("ISEFGSCPPGQFRCSEPPGAHGECYPQDWLCDGHPDCDDGRDEWGCG", "soluble"),
]

# input for lookup
Record `MGSDKIHHHHHHMSDSVSIAKYMHRDCLHCPAPLVGTSFKPCHFADIVDNGLQDGFFEVHAENYMGKGGPPHRALSALRETYPVSVHGVCLSIGGPSPLDAHHLARFRDVVARYEPVLVSEHLAWSSHGGAFYNDLLPLPYTKATLDRVCAHVDQIQEAIARPLLLENPSTYVGFASSTMSETEFIAAVAGRTGCGLLLDINNAFVSATNHGCSAADYLADFPLEQVGEIHLAGHSEQRDDEDEPLLIDSHDRPIAGPVWALYASVIARTGPVPTLVEWDSQLPDWLVLRAQALEARRIMDAAVASPVEVADHAL` . Reported soluble on expression in E. coli: not soluble

====

# method.description: soluble on expression in E. coli; label from the status in PepcDB or PDB records

# sequence.chain, soluble on expression in E. coli
data = [
    ("MERVNERREQNNPNGCCLRDEDFSQFNSEAFLRELAADLNEDDTNDLSSSLFATSRIPEEHIRSTGLVERAEHYNKSVDQRTMTDARIAFEEEQLKNGKSPNAGTSGMENLADSGTHVPRRGRGDYFGKLRSFENGVSFPSRPPLTSEHSSSGDSYFNNSHKTTPNYRRFANSNDSSRDNSQMEYKAENDASHTSQSSNRFGFNSQINRTDIHPPAARHTFNPAAAYNGKITPDFRFNYIPNAAVPAPSVVPVIATHPGVAPPSIVPSPIRIGQRYPKRPDNMPKPSSEPKHLNHNYYQIELYGATQEDRIAQRIEKTVRQTEAPVRRF", "not soluble"),
    ("MGSDKIHHHHHHMNVLLSRKDTIRFLILSELMVNPECNQRDIAKKLGLTPQAISEHFKEMVSEGFINVVHKGYYEVTRKGEEWMSRNLIDLHLFSEELLKKIYSKTVVAIAKGRIAENDSVRYWFGDGYIFAERSAKGNGVALTSAEDGEDVLIKPTGSFEPPEKGEIIIVKVPGVAEGGSRKVDLDSFRELVKSRPTSIVVAIGIEALVTCRKIRVEPIFFGAKEVCIEAAHHGSGVIVACTESMLNDLLRSLIDEGLEFEIKEFVKAT", "not soluble"),
    ("MPANKAKYKIIKQQVKNNILSARYKIGDRLPTESDFMAEFDVSRFTIRRAIDELVNENFVRRVQGNGMYIKDWHKVNKADEDLRTIAVITTHVADYIFPNIINAIDKVISDAGYSLILANTHNDPKRERDNLLRLLKLKPSAWIIEPTQSAVNRENLDLYQQIKKLDVPAVFINSSYPGIGFPCLKTDDRGSLSELTNYLFSIGHRRIMGVFQIDDIQGVERMKGFADAYLGHPYFSDRQTTIMYKSTDDYDEIFTRITNFYKNQTVDKPDAIICYNDQLAIALIDNLKEQGWKIPEDISIIGFDDYNISRYITPTLTTLSHPKSQMGRDAGKMILNLIDNKAVKSITYYPELVLRKSVMPI", "not soluble"),
    ("MGSDKIHHHHHHMHTCPRCDSKKGEVMSKSPVEGAWEVYQCQTCFFTWRSCEPESITNPEKYNPAFKIDPKETETAIEVPAVPEPKGLIRVNCMSDRLFELLDGSCLNEKQHEAFVLQTVSEDGWPHAAMISAGEIIALSRTDIRIALWKNTMTSANILRTGKAQFTAWWKGAAYYVKLECAPLPPLKDAEYERDRFSCRIVSVKEDVAKYADLTSGVRIQLHSPEEVLSRWKKTLEDLKR", "not soluble"),
]

This collection of values is drawn from the DeepSol protein solubility set.
